Tested on: IGROV1 ovarian
Assay: NCI tumour cell line growth inhibition, 48 h; in the data active means GI50 below about 0.43 µM; inactive means the rest
Outcome codes: T = active, F = inactive

MOLECULE	EXPERIMENTAL_SYSTEM	CATEGORY
CS(=O)(=O)Nc1cc(-c2ccc3ncnc(Nc4ccc5c(cnn5Cc5ccc(F)cc5)c4)c3c2)cnc1Cl	IGROV1 ovarian	T
Cn1cc(-c2ccc3c(c2)CCN3C(=O)Cc2cccc(C(F)(F)F)c2)c2c(N)ncnc21	IGROV1 ovarian	F
Cn1cc(-c2ccc(CNc3cc(-c4cnc5cc(OCCCN6CCCC6)ccn45)ncn3)cc2)cn1	IGROV1 ovarian	F
CC(=O)OC1C2(CC3N4C(=O)C5(CO)SSC4(CC31O)C(=O)N5C)OC(C)C(C)(C)C2=O (centres undefined)	IGROV1 ovarian	T
